Protocol details: Epacadostat absolute quantification in CT26 tumor sections by QMSI (MALDI MSI)
Assay type: in vivo, BALB/c mice
Measurement conditions: BALB/c, mouse, CT26 tumor section, ROI 1, oral, 100 mg/kg, EPA quantity corresponding to the share in ROI 1, 61% of EPA signal
Observed property: concentration at 2 h

Incoming: Suppose we examine the molecule NS(=O)(=O)NCCNc1nonc1C(=NO)Nc1ccc(F)c(Br)c1 [EPA, Epacadostat] ; what concentration at 2 h value has been reported?
Outgoing: 26000 ng/g

---

Protocol details: Epacadostat absolute quantification in CT26 tumor sections by QMSI (MALDI MSI)
Format: in vivo, BALB/c mice
Measurement conditions: BALB/c, mouse, CT26 tumor section, ROI 2 (low EPA region), oral, 100 mg/kg, EPA quantity in ROI 2 (low EPA), QMSI; ROI 2 = 62% of tumor surface
Observed property: concentration at 2 h

Incoming: What measured concentration at 2 h goes with `NS(=O)(=O)NCCNc1nonc1C(=NO)Nc1ccc(F)c(Br)c1` ?
Outgoing: 25000 ng/g
